Below, each of the compounds is paired with its reported half-life value.
protocol.summary: Determination of stability in human plasma
Format: in vitro ADME
condition.set: 37° C., read-out: Stability t1/2 in human plasma (converted)
Method: A stock solution of 1.0 mg of the substance to be tested in a 9:1 mixture of acetonitrile and dimethyl sulphoxide was prepared. 20 μl of this stock solution were added at 37° C. to 1 ml of human plasma or rat plasma. To determine the content, 100 μl samples were each taken at different times. […]
Where a name gives a salt, the structure may show the parent alone.
Answer with a number only, understood to be in h.

A selection of reference data follows.
stdin: I would be grateful if you could share the reported half-life for Cc1nccn1CCC(=O)O[C@H](C)c1ccc([C@H]2C[C@@]3(C)[C@@H](CC[C@@]3(O)C(F)(F)C(F)(F)F)[C@@H]3CCC4=CC(=O)CCC4=C32)cc1 (single isomer, unassigned) [Example 14B] .
stdout: 19.8

stdin: What do you get for CC(OC(=O)CCc1nccs1)c1ccc([C@H]2C[C@@]3(C)C(CC[C@@]3(O)C(F)(F)C(F)(F)F)C3CCC4=CC(=O)CCC4=C32)cc1 (mixture of isomers) ?
stdout: 131

stdin: What do you get for CC(=O)O[C@H](C)c1ccc([C@H]2C[C@@]3(C)C(CC[C@@]3(O)C(F)(F)C(F)(F)F)C3CCC4=CC(=O)CCC4=C32)cc1 (mixture of isomers) ?
stdout: 609

stdin: What do you get for Cc1nccn1CCC(=O)O[C@@H](C)c1ccc([C@H]2C[C@@]3(C)[C@@H](CC[C@@]3(O)C(F)(F)C(F)(F)F)[C@@H]3CCC4=CC(=O)CCC4=C32)cc1 (single isomer, unassigned) [Example 14A] ?
stdout: 190

stdin: What do you get for CC(OC(=O)[C@@H]1CCCN1)c1ccc([C@H]2C[C@@]3(C)C(CC[C@@]3(O)C(F)(F)C(F)(F)F)C3CCC4=CC(=O)CCC4=C32)cc1 (mixture of isomers) [Example 13, hydrochloride] ?
stdout: 9.7

Would you kindly look at the next entry?
stdin: I would be grateful if you could share the reported half-life for C=CCOC(=O)N[C@@H](C)C(=O)O[C@@H](C)c1ccc([C@H]2C[C@@]3(C)[C@@H](CC[C@@]3(O)C(F)(F)C(F)(F)F)[C@@H]3CCC4=CC(=O)CCC4=C32)cc1 .
stdout: 22.9
